Known pIC50 of a selection of compounds
- assaySystem: CDK4/CyclinD1 (Homo sapiens (Human), UniProt P11802)
- Sequence (P11802 whole entry, species assumed): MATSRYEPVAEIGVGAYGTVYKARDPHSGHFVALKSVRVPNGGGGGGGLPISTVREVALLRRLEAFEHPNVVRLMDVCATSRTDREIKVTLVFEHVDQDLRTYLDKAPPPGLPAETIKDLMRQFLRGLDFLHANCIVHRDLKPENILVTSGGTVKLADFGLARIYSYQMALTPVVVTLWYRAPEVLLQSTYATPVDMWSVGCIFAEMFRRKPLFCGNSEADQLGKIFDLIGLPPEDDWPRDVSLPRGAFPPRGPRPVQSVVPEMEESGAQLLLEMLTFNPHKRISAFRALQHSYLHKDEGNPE
- Sequence (P24385 whole entry partner, species assumed): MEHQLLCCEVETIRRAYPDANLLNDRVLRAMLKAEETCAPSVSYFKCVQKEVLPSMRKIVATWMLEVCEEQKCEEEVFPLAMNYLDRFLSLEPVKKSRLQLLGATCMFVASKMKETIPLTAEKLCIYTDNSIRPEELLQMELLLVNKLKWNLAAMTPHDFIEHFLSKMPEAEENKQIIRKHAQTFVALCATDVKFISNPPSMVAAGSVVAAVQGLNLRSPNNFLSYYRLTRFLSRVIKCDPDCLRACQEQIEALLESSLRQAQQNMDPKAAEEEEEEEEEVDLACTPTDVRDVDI
- assayDetails: CDK4/CyclinD1 kinase assay (Nanosyn, Caliper microfluidic)
- Type: biochemical
- experimentalConditions: Table 2; read-out: CDK4/CycD1 IC50
pIC50: −log10 of the molar value.

# givenSmiles, pIC50
data = [
    ("CC(C)N1CCN(c2ccc(Nc3ncc4cc5n(c4n3)C3(CCCCC3)CNC5=O)nc2)C[C@@H]1C", 9.30),
    ("CC(C)(C)CCN1CCN(c2ccc(Nc3ncc4cc5n(c4n3)C3(CCCC3)CNC5=O)nc2)CC1", 8.89),
    ("C[C@@H]1CN(c2ccc(Nc3ncc4cc5n(c4n3)C3(CCCCC3)CNC5=O)nc2)C[C@H](C)N1C[C@@H](C)O", 8.74),
    ("O=C1NCC2(CCCC2)n2c1cc1cnc(Nc3ccc(N4CCC(N5CCCCC5)CC4)cn3)nc12", 8.17),
    ("C[C@H](O)CN1CCN(c2ccc(Nc3ncc4cc5n(c4n3)C3(CCCC3)CNC5=O)nc2)C[C@H]1C", 8.89),
    ("O=C1NCC2(CCCCC2)n2c1cc1cnc(Nc3ccc(C(=O)N4CCN(C5CCC5)CC4)cn3)nc12", 8.70),
    ("C[C@H](O)CN1[C@H](C)CN(c2ccc(Nc3ncc4cc5n(c4n3)C3(CCCCC3)CNC5=O)nc2)C[C@@H]1C", 8.49),
    ("O=C1NCC2(CCCC2)n2c1cc1cnc(Nc3ccc(N4CCNCC4)cn3)nc12", 7.98),
]
